What activity, negative = inhibition was measured for each of the following?
- tested on: Cytochrome P450 2C19 (Homo sapiens) (UniProt P33261)
- Sequence (P33261 whole entry, looked up): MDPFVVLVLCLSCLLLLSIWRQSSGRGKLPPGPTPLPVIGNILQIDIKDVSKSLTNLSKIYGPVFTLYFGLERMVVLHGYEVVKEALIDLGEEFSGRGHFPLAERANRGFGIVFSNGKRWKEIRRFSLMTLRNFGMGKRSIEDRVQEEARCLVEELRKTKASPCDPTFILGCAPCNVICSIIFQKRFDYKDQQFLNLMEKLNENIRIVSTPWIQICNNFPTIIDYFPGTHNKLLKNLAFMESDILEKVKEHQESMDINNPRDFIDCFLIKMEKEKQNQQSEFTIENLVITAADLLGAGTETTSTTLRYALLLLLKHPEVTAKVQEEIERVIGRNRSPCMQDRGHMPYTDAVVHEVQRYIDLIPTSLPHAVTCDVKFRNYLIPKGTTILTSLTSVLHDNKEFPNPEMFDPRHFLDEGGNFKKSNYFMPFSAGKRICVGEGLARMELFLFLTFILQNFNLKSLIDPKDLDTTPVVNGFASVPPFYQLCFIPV
- assay text: Cytochrome panel assay with activity outcomes; as to activity, negative = inhibition: % is scaled to controls: 0 for no effect and ±100 for the full control effect
- condition description: recombinant CYP, pro-luciferin dealkylation, luminescence, p450-cyp2c19; series mostly up to 57.1 µM
Screen size: about 16,000 compounds; about 5,800 (36%) were called active. Another 23% or so got no clear call; they are omitted. The list shows a part of the results.

// query Could you tell me which activity, negative = inhibition is on file for CSc1ncnc2c1ncn2[C@@H]1O[C@@H](CO)[C@H](O)O[C@@H]1O ?
// result 41% [at 11.4 µM] (inactive)

// query Could you tell me which activity, negative = inhibition is on file for O=C(O)c1cccc(C(=O)O)c1S(=O)Cc1ccccc1 (stereo not given) ?
// result 41.5% [at 11.4 µM] (inactive)

// query Could you tell me which activity, negative = inhibition is on file for COc1ccc(/C=C(\C#N)C(N)=O)c(OC)c1 ?
// result 6.18% [at 11.4 µM] (inactive)

// query Could you tell me which activity, negative = inhibition is on file for O=C(O)c1cc2ccccc2c(S(=O)(=O)O)c1O ?
// result 23.2% [at 11.4 µM] (inactive)

// query Could you tell me which activity, negative = inhibition is on file for NNC(=O)Cc1cccnc1 ?
// result 7.22% [at 11.4 µM] (inactive)

// query Could you tell me which activity, negative = inhibition is on file for O=C(O)c1ccc(C(=O)Nc2cccc3ccccc23)c(C(=O)O)c1 ?
// result 12.6% [at 11.4 µM] (inactive)

// query Could you tell me which activity, negative = inhibition is on file for CC(C)(CN)CN ?
// result 26.4% [at 11.4 µM] (inactive)

// query Could you tell me which activity, negative = inhibition is on file for O=C(O)C(Cl)(c1ccccc1)c1ccccc1 ?
// result -2.62% [at 11.4 µM] (inactive)

// query Could you tell me which activity, negative = inhibition is on file for CC(=O)OC[C@@H]1O[C@@H](O/N=C2/C[C@@H](O)[C@@H](O)[C@@H]3[C@@H]4C(=O)N(C[C@@H]5CCCO5)C(=O)[C@H]4CC[C@H]23)[C@H](OC(C)=O)[C@H](OC(C)=O)[C@@H]1OC(C)=O ?
// result -5.2% [at 11.4 µM] (inactive)

// query Could you tell me which activity, negative = inhibition is on file for CCc1cc2c(nc1CC)CCN(CC/C(C)=N/O[C@@H]1O[C@H](COC(C)=O)[C@H](OC(C)=O)[C@H](OC(C)=O)[C@H]1OC(C)=O)C2 ?
// result 6.45% [at 11.4 µM] (inactive)

###

- tested on: Cytochrome P450 2C19 (Homo sapiens)
- assay text: Cytochrome panel assay with activity outcomes
- condition description: recombinant CYP, pro-luciferin dealkylation, luminescence, p450-cyp2c19; series mostly up to 57.1 µM
The campaign covered roughly 16,000 compounds. About 5,800 (36%) were called active. Inconclusive results (about 23%) are left out. Calls come from the whole dose curve; as a rule, active = well fitted curve in the direction sought with a large enough effect; inconclusive = small, poorly fitted or top-dose-only effect, or effect the other way; inactive = no such curve, though single readings can be large or run the other way. This is one part of the list.
Please reply with one of these outcomes: active, inactive

// query Which outcome was assigned to N#CCCn1c(=O)c(-c2ccc(F)cc2)nc2cnc(Oc3cccc(Cl)c3)nc21 in this test?
// result inactive

// query Which outcome was assigned to CCC(=O)Nc1ccc(/C(C)=N\NS(=O)(=O)c2ccc(C)cc2)cc1 in this test?
// result active

// query Which outcome was assigned to C[C@@]12C[C@H](O)[C@@H]3[C@H](CCC4=CC(=O)CC[C@]43C)[C@H]1CC[C@@H]2c1csc(N)n1 in this test?
// result active

// query Which outcome was assigned to C/C(=N/NS(=O)(=O)c1ccc(C)cc1)c1cccc(NC(=O)c2cccc(Cl)c2)c1 in this test?
// result active

// query Which outcome was assigned to O=c1cnc2cnc(Oc3ccccc3)nc2n1Cc1ccc(F)cc1 in this test?
// result active

// query Which outcome was assigned to Cn1nc(C(F)(F)F)c(/C=N/OC(=O)c2ccccc2Cl)c1SCc1ccc(Cl)cc1 in this test?
// result active

// query Which outcome was assigned to CC(CC(=O)O)CC(=O)Nc1ccc(S(N)(=O)=O)cc1 (stereo not given) in this test?
// result inactive

// query Which outcome was assigned to Cc1ccc(C)c(OCCCC(C)(C)C(=O)O)c1 in this test?
// result inactive

// query Which outcome was assigned to Cc1cc(NC(=O)CCC(=O)N(CC2CCCO2)C(C(=O)NC2CCCC2)c2cccnc2)no1 (stereo not given) in this test?
// result inactive

// query Which outcome was assigned to CCOC(=O)CN(C(=O)CCC(=O)Nc1cc(C)on1)C(C(=O)NC1CCCC1)c1cccnc1 (stereo not given) in this test?
// result active
